Reported Emax values for the following compounds.
SYSTEM_TESTED: GCase (GBA) in human fibroblast cell line GM10915 harboring the L444P GBA mutation (Homo sapiens, UniProt P04062, L483P)
Construct: Human fibroblast cell line GM10915 harboring the L444P GBA mutation; host or cells: GM10915 human fibroblasts
Sequence (P04062 40-536 L483P): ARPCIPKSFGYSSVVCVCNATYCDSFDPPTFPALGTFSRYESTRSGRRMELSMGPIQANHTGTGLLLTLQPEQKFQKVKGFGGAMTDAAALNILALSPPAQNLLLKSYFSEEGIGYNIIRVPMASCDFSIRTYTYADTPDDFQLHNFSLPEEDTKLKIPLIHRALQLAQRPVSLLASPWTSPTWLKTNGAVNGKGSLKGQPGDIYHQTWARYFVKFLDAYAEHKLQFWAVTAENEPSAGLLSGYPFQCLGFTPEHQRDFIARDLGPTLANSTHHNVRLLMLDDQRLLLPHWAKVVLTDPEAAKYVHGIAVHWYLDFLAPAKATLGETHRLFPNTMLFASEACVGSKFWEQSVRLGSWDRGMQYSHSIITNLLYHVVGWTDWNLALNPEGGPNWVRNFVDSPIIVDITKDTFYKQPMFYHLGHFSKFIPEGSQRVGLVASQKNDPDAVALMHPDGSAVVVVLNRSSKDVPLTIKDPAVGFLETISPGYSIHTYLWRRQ
TEST: GCase activity assay (4-MUG substrate, normalised to crystal violet staining) in L444P GBA fibroblasts
Format: cell-based
MEASUREMENT_SETUP: maximum percent GCase activity relative to untreated cells in the dose range tested, 5 days exposure
OBSERVATION_TYPE: Emax (%)

> print(dat)
                                    compound  endpoint.value
 1  F[C@H]1CN[C@H](C2=NOCC(CN3CCCCC3)O2)C1 (stereo partly drawn) [compound 556]             114
 2  C[C@@H]1CNC[C@@]1(C)C1=NOCC(CN2CCCCC2)O1 (relative stereo) [compound 489]             242
 3  COC1CN(C(C)C)CCC1C1=NOCC(CN2CCCCC2)O1 (racemic) [compound 714]             213
 4  CN(C)[C@H]1CC[C@@H](C2=NOCC(CN3CCCCC3)O2)CC1 (relative stereo) [compound 569]             187
 5  OCC1(C2=NOCC(CN3CCCCC3)O2)CCNCC1 (racemic) [compound 722]             153
 6  c1sc(C2CCNCC2)nc1C1=NOCC(CN2CCCCC2)O1 (stereo not drawn) [compound 878]             231
 7  O[C@@H]1CC[C@@H](C2=NOCC(CN3CCCCC3)O2)C1 (stereo partly drawn) [compound 704]             117
 8  COc1cncc(CNCCC2=NOCC(CN3CCCCC3)O2)c1 (racemic) [compound 806]             183
 9  CN1CCCC(C)(C2=NOCC(CN3CCCCC3)O2)C1 (racemic) [compound 529]             222
10  COc1ncc(CC2(C3=NOC(C)C(CN4CCCCC4)O3)CCN(C)C2)cc1Cl (stereo not drawn) [compound 646]             112
11  CN(C)c1ccc(CC2(C3=NOCC(CN4CCCCC4)O3)CCNCC2)cn1 (stereo not drawn) [compound 543]             138
12  COC1CN(C)CCC1C1=NOCC(CN2CCCCC2)O1 (racemic) [compound 720]             346
13  CN1CCC(C2=NOCC(CN3CCCCC3)O2)CC1=O (stereo not drawn) [compound 676]             120
14  O=C1CCC(C2=NOCC(CN3CCCCC3)O2)CN1 (stereo not drawn) [compound 617]             113
15  CN1CCN(CC2CON=C(C3(Cc4cccnc4)CCNCC3)O2)CC1 (stereo not drawn) [compound 686]              97
16  C1CCN(CC2CON=C([C@]34CCN[C@H]3CCOC4)O2)CC1 (relative stereo) [compound 462]             241
17  CC(C)(C1=NOCC(CN2CCCCC2)O1)C1CCCNC1 (racemic) [compound 473]             181
18  c1cc(C2CCCNC2)ccc1C1=NOCC(CN2CCCCC2)O1 (stereo not drawn) [compound 856]             134
